- System: p37 (Vaccinia virus Copenhagen)
- Procedure Details: Selectivity index, ratio of CC50 for African green monkey Vero cells to IC50 for inhibition of p37 in Vaccinia virus Copenhagen infected in African green monkey Vero cells
- Assay type: toxicity
- Condition Details: read-out: Ratio CC50/IC50
Recorded Metric: selectivity ratio

// known answers, use as guide
CN(C(=O)c1ccc(C(F)(F)F)cc1)C12CC3CC(CC(C3)C1)C2 : > 61
CC(NNC(=O)c1ccc(C(F)(F)F)cc1)C12CC3CC(CC(C3)C1)C2 (racemic) : 27
O=C(NN1C(=O)[C@@H]2[C@@H]3C=C[C@@H]([C@H]4C[C@@H]34)[C@@H]2C1=O)c1ccc(C(F)(F)F)cc1 : > 100000
O=C(NC12CC3CC(CC(C3)C1)C2)c1ccc(C(F)(F)F)cc1 : > 2320
CCC12CC3CC(C1)CC(NC(=O)c1ccc(C(F)(F)F)cc1)(C3)C2 : > 68

As a next step, examine the compound that follows.
Query `C/C(=N\NC(=O)c1ccc(C(F)(F)F)cc1)C12CC3CC(CC(C3)C1)C2` on p37 (Vaccinia virus Copenhagen); selectivity ratio returned: > 26

---

- Procedure Details: Cytotoxicity against African green monkey Vero cells assessed as reduction in cell viability by neutral red dye based colorimetric analysis
- Condition Details: chlorocebus sabaeus, Vero cells
Recorded Metric: CC50 (µM)
Lab book: enter the figure in µM, no units written.

CCC12CC3CC(C1)CC(NNC(=O)c1ccc(C(F)(F)F)cc1)(C3)C2 : 2.5
CC(NNC(=O)c1ccc(C(F)(F)F)cc1)C12CC3CC(CC(C3)C1)C2 (racemic) : 14

// field: CC50; key: `O=C(NNC12CC3CC(CC(C3)C1)C2)c1ccc(C(F)(F)F)cc1` ; value = 2.8

---

The following compounds are shown together with reported selectivity ratio values.
- Tested on: p37 (Ectromelia virus K1)
- Procedure Details: Selectivity index, ratio of CC50 for African green monkey Vero cells to IC50 for inhibition of p37 in Ectromelia virus K1 infected in African green monkey Vero cells
- Assay type: toxicity
- Condition Details: read-out: Ratio CC50/IC50

Consider the following illustrative entries.
O=C(NNC1C2CC3CC(C2)CC1C3)c1ccc(C(F)(F)F)cc1 (stereo not drawn) : > 118
C/C(=N\NC(=O)c1ccc(C(F)(F)F)cc1)C12CC3CC(CC(C3)C1)C2 : > 25

The reported selectivity ratio of the compound O=C(NC1C2CC3CC(C2)CC1C3)c1ccc(Br)cc1 (stereo not drawn) was > 61

---

# key: entry, value: selectivity ratio
- Test system: p37 (Cowpox virus Grishak)
- Procedure Details: Selectivity index, ratio of CC50 for African green monkey Vero cells to IC50 for inhibition of p37 in Cowpox virus Grishak infected in African green monkey Vero cells
- Format: toxicity
- Condition Details: read-out: Ratio CC50/IC50

Some compounds with known selectivity ratio results, for comparison:
O=C(NC12CC3CC(CC(C3)C1)C2)c1ccc(C(F)(F)F)cc1 : > 333
O=C(NNC1C2CC3CC1CC(Cl)(C3)C2)c1ccc(C(F)(F)F)cc1 (configuration not stated) : 20.7
O=C(NN1C(=O)[C@@H]2[C@@H]3C=C[C@@H]([C@H]4C[C@@H]34)[C@@H]2C1=O)c1ccc(C(F)(F)F)cc1 : > 50000
O=C(NC1C2CC3CC(C2)CC1C3)c1ccc(Br)cc1 (configuration not stated) : > 26.5

Per the records, this compound ( `CCC12CC3CC(C1)CC(NC(=O)c1ccc(C(F)(F)F)cc1)(C3)C2` ) has selectivity ratio equal to > 25

compound `CN(C(=O)c1ccc(C(F)(F)F)cc1)C12CC3CC(CC(C3)C1)C2` , selectivity ratio observed: > 9

Just so you know, measured selectivity ratio for O=C(NNC1C2CC3CC(C2)CC1C3)c1ccc(C(F)(F)F)cc1 (configuration not stated) came out at > 72

So, `O=C(NCC12CC3CC(CC(C3)C1)C2)c1ccc(C(F)(F)F)cc1` ? Its selectivity ratio was > 239

Kindly note the recorded selectivity ratio for O=C(NC1C2CC3CC(C2)CC1C3)c1ccc(C(F)(F)F)cc1 (configuration not stated) , which is > 321

---

Overview of reported CC50 across a group of molecules:
- Test system: Vero
- Procedure Details: Cytotoxicity against African green monkey Vero cells assessed as reduction in cell viability by neutral red dye based colorimetric analysis
- Condition Details: chlorocebus sabaeus, vero

Answered cases to consult:
O=C(NNC(=O)c1ccc(C(F)(F)F)cc1)NC12CC3CC(CC(C3)C1)C2 : 94.3 µM
O=C(NCC12CC3CC(CC(C3)C1)C2)c1ccc(Br)cc1 : 238 µM
O=C(NC1C2CC3CC(C2)CC1C3)c1ccc(C(F)(F)F)cc1 (configuration not stated) : > 309 µM
O=C(NC12CC3CC(CC(C3)C1)C2)c1ccc(C(F)(F)F)cc1 : > 309 µM
CCC12CC3CC(C1)CC(NC(=O)c1ccc(C(F)(F)F)cc1)(C3)C2 : > 280 µM

// sample O=C(NC1C2CC3CC(C2)CC1C3)c1ccc(Br)cc1 (configuration not stated) , its CC50 was > 299 µM

The recorded CC50 for `CC12CC3CC(C1)CC(NC(=O)c1ccc(C(F)(F)F)cc1)(C3)C2` is > 296 µM

Given item `CN(C(=O)c1ccc(C(F)(F)F)cc1)C12CC3CC(CC(C3)C1)C2` , the value recorded as its CC50 is > 296 µM

The molecule `O=C(NN1C(=O)[C@@H]2[C@@H]3C=C[C@@H]([C@H]4C[C@@H]34)[C@@H]2C1=O)c1ccc(C(F)(F)F)cc1` showed CC50 equal to > 266 µM

// field: CC50; key: `C/C(=N\NC(=O)c1ccc(C(F)(F)F)cc1)C12CC3CC(CC(C3)C1)C2` ; value = > 274 µM

The molecule listed as `O=C(NCC12CC3CC(CC(C3)C1)C2)c1ccc(C(F)(F)F)cc1` has a reported CC50 of > 296 µM

Form: molecule = `CC12CC3CC(C)(C1)CC(NC(=O)c1ccc(C(F)(F)F)cc1)(C3)C2` ; CC50 = 20.5 µM

---

Here, each record is paired with measured selectivity ratio data.
- Tested on: p37 (Vaccinia virus Copenhagen)
- Procedure Details: Selectivity index, ratio of CC50 for African green monkey Vero cells to IC50 for inhibition of p37 in Vaccinia virus Copenhagen infected in African green monkey Vero cells
- Format: toxicity
- Condition Details: read-out: Ratio CC50/IC50

Answered examples (2):
O=C(NCC12CC3CC(CC(C3)C1)C2)c1ccc(Br)cc1 : 28
CCC12CC3CC(C1)CC(C(=O)NNC(=O)c1ccc(C(F)(F)F)cc1)(C3)C2 : 3.75

Now for another entry.
The reported selectivity ratio value, p37 (Vaccinia virus Copenhagen), for `O=C(NN=C1C2CC3CC(C2)CC1C3)c1ccc(C(F)(F)F)cc1` reads > 1.5

---

selectivity ratio values for the compounds below.
- System: p37 (Cowpox virus Grishak)
- Procedure Details: Selectivity index, ratio of CC50 for African green monkey Vero cells to IC50 for inhibition of p37 in Cowpox virus Grishak infected in African green monkey Vero cells
- Assay type: toxicity
- Condition Details: read-out: Ratio CC50/IC50

C/C(=N\NC(=O)c1ccc(C(F)(F)F)cc1)C12CC3CC(CC(C3)C1)C2 : > 23

selectivity ratio reading for `CC12CC3CC(C1)CC(NC(=O)c1ccc(C(F)(F)F)cc1)(C3)C2` : > 19

response.value for `O=C(NNC(=O)C12CC3CC(CC(C3)C1)C2)c1ccc(C(F)(F)F)cc1` (field: selectivity ratio) = > 57
